- assay.target: TNFα trimer (Homo sapiens, UniProt P01375)
- Sequence (P01375 77-233 limits assumed): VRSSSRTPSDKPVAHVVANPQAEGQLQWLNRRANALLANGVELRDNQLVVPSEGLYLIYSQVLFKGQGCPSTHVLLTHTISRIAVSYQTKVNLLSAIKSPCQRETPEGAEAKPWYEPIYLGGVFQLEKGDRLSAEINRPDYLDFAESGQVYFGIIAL
- assay.protocol: TNFα FP Competitive Binding Assay
- assay.setup: FP binding assay; 20 nM TNFα trimer, 1 nM OregonGreen488 probe; read-out: TNF IC50
pIC50: −log10 of the molar value.
Some compounds, each annotated with its measured pIC50.
reported.endpoint: pIC50

# smiles.text, val
measured = [
    ("Cn1c(=O)c2ccc(-c3cnc(N4CC5(CC(C(=O)O)C5)C4)nc3)cc2n1Cc1ccccc1OC(F)F", "5.00 to 6.00"),
    ("Cn1c(=O)c2ccc(-c3ccnc(N4CCOCC4)c3)cc2n1Cc1cccc(F)c1", "< 5.00"),
    ("C[C@@H]1CN(C(=O)CO)CCN1c1ncc(-c2ccc3c(=O)n(C)n(Cc4cc(CC#N)ccc4OC(F)F)c3c2)cn1", "> 6.00"),
    ("CC(=O)N1CCC(Oc2cc(-c3ccc4c(=O)n(C)n(Cc5ccccc5OC(F)F)c4c3)ccn2)CC1", "5.00 to 6.00"),
    ("CC(=O)N1CCN(c2ncc(-c3ccc4c(=O)n(C)n(Cc5c(CO)cccc5OC(F)F)c4c3)cn2)[C@H](C)C1", "> 6.00"),
    ("COC(=O)NCc1ccc(OC(F)F)c(Cn2c3cc(-c4cnc(C(C)(C)O)nc4)ccc3c(=O)n2C)c1", "5.00 to 6.00"),
    ("Cn1c(=O)c2ccc(-c3cnc(C(C)(C)O)nc3)cc2n1Cc1cc(NCc2ccccn2)ccc1Cl", "5.00 to 6.00"),
]
